- experimental-target: Luciferin 4-monooxygenase (Photinus pyralis) (UniProt P08659)
- Sequence (P08659 whole entry, looked up): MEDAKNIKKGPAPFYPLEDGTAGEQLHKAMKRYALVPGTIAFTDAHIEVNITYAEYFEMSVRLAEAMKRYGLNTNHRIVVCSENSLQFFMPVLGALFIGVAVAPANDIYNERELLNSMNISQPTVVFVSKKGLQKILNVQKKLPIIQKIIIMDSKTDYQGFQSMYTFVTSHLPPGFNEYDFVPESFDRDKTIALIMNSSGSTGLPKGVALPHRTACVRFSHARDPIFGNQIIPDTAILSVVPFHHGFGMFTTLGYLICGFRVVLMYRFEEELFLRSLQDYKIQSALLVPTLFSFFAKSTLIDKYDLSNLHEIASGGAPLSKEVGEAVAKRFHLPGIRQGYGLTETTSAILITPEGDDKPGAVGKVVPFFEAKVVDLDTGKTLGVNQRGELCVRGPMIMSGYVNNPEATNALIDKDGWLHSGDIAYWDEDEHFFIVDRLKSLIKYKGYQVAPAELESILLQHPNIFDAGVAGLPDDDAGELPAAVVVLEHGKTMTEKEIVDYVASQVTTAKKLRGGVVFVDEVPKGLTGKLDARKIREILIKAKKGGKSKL
- method-notes: firefly luciferase enzyme inhibitors, primary screen, biochemical, luminescence, purified enzyme, 2006 set (AID 1141);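 note: cell-free assay with purified firefly luciferase at 100 ng per well in PBS; test concentration not given here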
- test-parameters: SteadyGlo luminescence, 30 min, called active from +8 up or from −8 down
Active and inactive are the calls of the source.
API: response.call in yes (1) (active), no (0) (inactive)

Consider the following illustrative entries.
# compound, experimental-target, label-value
records = [
    ("C=C(CCCC)/C(=C/C[C@@H](OC(=O)c1ccncc1)c1ccc(OCCO)cc1)c1cc(C(=O)OC)ccc1OC", "Luciferin 4-monooxygenase (Photinus pyralis) (UniProt P08659)", "no (0)"),
    ("CC[C@@H]1C=C(C(=O)O)[C@H](c2ccc(Br)cc2)N1S(=O)(=O)c1ccc(C)cc1", "Luciferin 4-monooxygenase (Photinus pyralis) (UniProt P08659)", "no (0)"),
    ("CO[C@H]1O[C@H](CO)[C@@H](OC(=O)Nc2ccccc2)[C@H](OC(=O)Nc2ccccc2)[C@@H]1OC(=O)Nc1ccccc1", "Luciferin 4-monooxygenase (Photinus pyralis) (UniProt P08659)", "no (0)"),
    ("CCN(CC)c1ccc(N2CC=CC34O[C@@H]5C=CCCOC(=O)C5[C@H]3C(=O)N(CCCCCCO)[C@@H]4C2=O)cc1 (stereo partly specified)", "Luciferin 4-monooxygenase (Photinus pyralis) (UniProt P08659)", "no (0)"),
    ("CCOC(=O)C[C@H]1[C@H](OC(=O)c2ccccc2-c2ccccc2)[C@@H](NC(=O)CC(C)C)c2cc(OCCCO)ccc2N1C(=O)Cc1ccc(OC)cc1", "Luciferin 4-monooxygenase (Photinus pyralis) (UniProt P08659)", "no (0)"),
    ("CCCC[C@@H]1C[C@H]1[C@@H](NC(=O)c1ccco1)c1ccccc1C(F)(F)F", "Luciferin 4-monooxygenase (Photinus pyralis) (UniProt P08659)", "no (0)"),
]

q: Given "[N-]=[N+]=NCc1ccccc1C[C@]1(C(=O)N2CCCCC2)N=C(c2ccc(OCCCO)cc2)O[C@H]1c1ccccc1N=[N+]=[N-]" , state the outcome it received in this test.
a: yes (1)

q: Given "CN(C)CCCC[C@@H]1NC(=O)[C@H]2C[C@@H](C(=O)NCCCCCCN)[C@@H](c3ccc(O)cc3)N2C1=O" , state the outcome it received in this test.
a: no (0)

q: Given CCCCC(CC)C(O)C1C=CC2C(=O)N(Cc3ccccc3)C(=O)C2N1n1cnnc1 (stereo unspecified) , state the outcome it received in this test.
a: no (0)

====

- Test system: Human papillomavirus type 1a E7 protein (residues 1-88)
- method-notes: HPV1a E7 small-molecule binders, primary screen, biochemical, small-molecule microarray, residues 1-88, 635 nm (AID 1129)
- test-parameters: small-molecule microarray binding, fluorescence 635 nm; higher = more signal
Items are presented alongside their recorded composite z-score.
The answer should be written as a number, with no unit following it.

Known results for molecules:
# molecule, composite z-score
data = [
    ("C[C@H]1C2[C@H](Cc3ccccc3)NC(=O)[C@]23C(=O)N[C@H](Cc2ccccc2)C(=O)N2CCC[C@H]2C(=O)NC/C=C\\C/C=C/C3[C@@H]2O[C@]12C (stereo partly drawn)", -0.338),
    ("CN(C)C(=O)[C@]1(Cc2ccccc2N=[N+]=[N-])N=C(c2ccc(OCCCO)cc2)O[C@@H]1c1ccccc1N=[N+]=[N-]", 1.18),
    ("C=CC1(C(=O)OC)CC=C(C(=O)OC)CC1 (stereo not drawn)", 0.901),
    ("CCOC(=O)[C@H]1C/C=C/C[C@H](C(=O)OCC)C(=O)O[C@H]2[C@@H](OC)O[C@H](CO)[C@@H](OC(=O)c3c(OC)cccc3OC)[C@@H]2OC1=O", 1.12),
    ("COc1ccc([Si](C)(C)[C@H]2[C@H](CCO)O[C@@]3(C(=O)N(Cc4ccc(N(C=O)c5ccccc5)cc4)c4ccccc43)[C@@H]2C)cc1", 0.179),
    ("C=CCN1C(=O)[C@]2(O[C@H](CCn3cc([C@H](O)c4ccccc4)nn3)[C@@H]([Si](C)(C)c3ccc(OC)cc3)[C@@H]2C)c2cc(N3CCC3=O)ccc21", 1.16),
    ("NCCCCCCNC(=O)[C@@H]1C[C@@H]2C(=O)NCC(=O)N2[C@@H]1c1ccc(O)cc1", 1.14),
    ("C=CCOC(=O)[C@H]1[C@@H]2C(=O)O[C@@H](c3ccccc3)[C@@H](c3ccccc3)N2[C@@H](c2ccc(OCCOC(=O)[C@H]3C[C@H]4C(=O)N[C@@H](CCCCNC(C)=O)C(=O)N4[C@H]3c3ccc(O)cc3)cc2)[C@]12C(=O)Nc1ccc(I)cc12", 0.885),
    ("O=C1O[C@@H](c2ccccc2)[C@@H](c2ccccc2)N2[C@@H](c3ccccc3OCCO)[C@]3(C(=O)Nc4ccccc43)[C@@H](C(=O)Nc3nc4ccccc4s3)[C@H]12", 1.23),
    ("COC(=O)c1c(CC[C@@H](CO)NC(=O)NCCn2cc(C3(O)CCCC3)nn2)oc(C(C)=O)c1C(=O)OC", 0.0881),
]

q: Which composite z-score value is on record for "CN(C)CCCC[C@@H]1NC(=O)[C@@H]2C[C@H](C(=O)NCCCCCCN)[C@H](c3cccc(OCCO)c3)N2C1=O" ?
a: 1.2

q: Which composite z-score value is on record for "O=C(NC1CC1)[C@@H]1c2ccccc2C(=O)N(Cc2ccccc2Cl)[C@H]1c1ccc(CO)cc1" ?
a: 0.981

q: Which composite z-score value is on record for "O=C1c2ccccc2[C@](Cc2ccccc2I)(C(=O)NCCN2CCOCC2)[C@H](c2ccc(CO)cc2)N1C1CCCCC1" ?
a: 1.19
